Molecular target: human TrkA (Homo sapiens)
Construct: purchased Lifetechnologies PV3144
Assay: Test Example 2: Human TrkA Inhibition Assay
Format: biochemical
Conditions: human TrkA inhibition, Test Example 2; class symbols A/B/C; read-out: IC50_nM
measurement_kind: IC50

In the examples that follow, each entry is paired with its recorded IC50.
> print(dat)
                                   molecule  measurement.kind     result
1  Cc1c(-c2cnn(C)c2)nn(-c2ccccc2)c1NC(=O)N[C@@H]1CN(CCCc2ccccc2)C[C@H]1c1ccc(F)c(F)c1 [I 63]              IC50  > 1000 nM
2  CCN1[C@@H]2CC[C@H]1[C@@H](c1ccc(F)c(F)c1)[C@@H]2NC(=O)Nc1c(C)c(-c2cnn(C)c2)nn1-c1ccccc1 (racemic) [Compound I-69]              IC50  > 1000 nM
3  COCCN1C[C@@H](NC(=O)Nc2c(C)c(-c3cnn(C)c3)nn2-c2ccccc2)[C@H](c2cccc(-c3ccncc3)c2)C1 (racemic) [Compound I-60]              IC50  > 1000 nM

Please state, for each entry, its recorded IC50.
1. Cc1c(-c2cnn(C)c2)nn(-c2ccccc2)c1NC(=O)N[C@@H]1C[C@@H](C)N(C)[C@H]1c1ccc(F)c(F)c1 (racemic) [I 78]
2. COCCN1C[C@@H](NC(=O)Nc2c(C)c(-c3cnn(C)c3)nn2-c2ccccc2)[C@H](c2ccc(C(=O)OC)cc2)C1 (racemic) [Compound I-20]
3. Cc1c(-c2cnn(C)c2)nn(-c2ccccc2)c1NC(=O)N[C@@H]1CN(Cc2nccs2)C[C@H]1c1ccc(F)c(F)c1 [Compound I-97]

result:
1. > 1000 nM
2. 100 to 1000 nM
3. < 100 nM

---

Biological target: human TrkA (Homo sapiens, UniProt P04629)
Construct: purchased Lifetechnologies PV3144
Sequence (P04629 33-796): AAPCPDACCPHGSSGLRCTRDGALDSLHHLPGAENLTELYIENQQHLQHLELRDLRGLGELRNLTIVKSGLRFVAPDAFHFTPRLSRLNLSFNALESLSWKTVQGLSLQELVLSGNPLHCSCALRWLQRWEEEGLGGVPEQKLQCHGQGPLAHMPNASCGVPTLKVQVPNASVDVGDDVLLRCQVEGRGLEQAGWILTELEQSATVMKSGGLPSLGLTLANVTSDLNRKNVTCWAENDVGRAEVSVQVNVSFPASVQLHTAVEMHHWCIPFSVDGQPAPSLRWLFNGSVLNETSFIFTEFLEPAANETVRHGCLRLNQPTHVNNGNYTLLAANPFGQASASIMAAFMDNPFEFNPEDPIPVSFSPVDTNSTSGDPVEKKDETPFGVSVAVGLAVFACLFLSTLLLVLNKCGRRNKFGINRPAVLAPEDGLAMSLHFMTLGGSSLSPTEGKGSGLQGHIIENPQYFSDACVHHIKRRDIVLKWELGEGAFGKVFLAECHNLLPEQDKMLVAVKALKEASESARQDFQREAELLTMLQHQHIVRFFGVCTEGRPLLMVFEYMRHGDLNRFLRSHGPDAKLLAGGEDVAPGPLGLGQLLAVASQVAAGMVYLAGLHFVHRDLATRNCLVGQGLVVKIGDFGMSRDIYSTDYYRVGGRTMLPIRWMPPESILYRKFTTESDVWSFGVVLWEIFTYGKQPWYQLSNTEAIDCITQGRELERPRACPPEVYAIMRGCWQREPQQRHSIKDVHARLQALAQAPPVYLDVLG
Experiment: Test Example 2-2: Human TrkA Inhibition Assay
Type: biochemical
Details: human TrkA inhibition, class symbols A/B/C, read-out: IC50_nM
Method: Seven point five μL per well of human TrkA (PV3144, Lifetechnologies, final concentration: 1 nmol/L) suspended in the assay buffer (100 mmol/L 4-(2-hydroxyethyl)-1-piperazineethanesulfonic acid (HEPES), 10 mmol/L magnesium chloride, 0.003 vol % Brij-35, 0.004 vol % Tween20 and 1 mmol/L dithiothreitol (DTT)) was applied in a 384 well plate and the plate was pre-incubated for 15 min at room temperature with 0.4 μL of each compound (final concentration: 200 mmol/L-0.1 nmol/L) dissolved in DMSO. […]
What IC50 was measured for each of the following?

In the examples that follow, each entry is paired with its recorded IC50.
> print(dat)
                                   compound                         system.under.test  measurement.kind          result
1  COCCC1C[C@@H](NC(=O)Nc2c(C)c(-c3cnn(C)c3)nn2-c2ccccc2)[C@H](c2ccc(F)c(F)c2)N1CC#N (stereo partly drawn)  human TrkA (Homo sapiens, UniProt P04629)              IC50  100 to 1000 nM
2  Cc1c(-c2cnn(C)c2)nn(-c2ccccc2)c1NC(=O)N[C@@H]1C[C@@H](Oc2ccccn2)C[C@H]1c1ccccc1 (racemic)  human TrkA (Homo sapiens, UniProt P04629)              IC50       > 1000 nM
3  COCCN1C[C@@H](NC(=O)Nc2c(C)c(-c3cnn(C)c3)nn2-c2ccccc2)[C@H](c2ccccc2)[C@H]1CF  human TrkA (Homo sapiens, UniProt P04629)              IC50  100 to 1000 nM
4  COCCC1C[C@H](NC(=O)Nc2c(C)c(-c3cnn(C)c3)nn2-c2ccccc2)[C@@H](c2ccccc2)C1 (stereo partly drawn)  human TrkA (Homo sapiens, UniProt P04629)              IC50  100 to 1000 nM
5  COCC[C@@H]1C[C@@H](NC(=O)Nc2c(C)c(-c3ccc(C(=O)O)cc3)nn2-c2ccccc2)[C@H](c2ccc(F)c(F)c2)N1  human TrkA (Homo sapiens, UniProt P04629)              IC50        < 100 nM

Alright, here's another compound for you.
compound "CCOCCN1C[C@@H](NC(=O)Nc2c(C)c(-c3cnn(C)c3)nn2-c2ccccc2)[C@H](c2ccc(F)c(F)c2)C1" , IC50 observed: < 100 nM

Data provenance is patent US10532985B2.
